src = patent US20230212131A1

- System: collagen 1 (COL1)
- Assay Comment: WI-38 collagen 1 inhibition assay
- Type: cell-based, human
- Measurement Parameters: Cellular EC50, WI-38 cells; values are classes of LogEC50
Observed Property: COL1 Efficacy (LogEC50)

For orientation, consider the following solved cases.
O=C(Nc1nc(-c2ccccc2Cl)cs1)c1ccc(C(=O)N2CCNCC2)cn1 [compound 451]    ++ (++: −5 to −6)
O=C(Nc1nc(-c2ccccc2Cl)cs1)C1CC(C(=O)N2CCOCC2)C1 (centres unmarked) [compound 426]    − (−: inactive)
CS(=O)(=O)N1CCN(C2CCC(C(=O)Nc3nc(-c4ccccc4Cl)cs3)CC2)CC1 (single isomer, unassigned) [Compound 435]    ++ (++: −5 to −6)
CC(=O)N1CCN(c2csc(C(=O)Nc3nc(-c4ccccc4Cl)cs3)c2)CC1 [Compound 462]    ++ (++: −5 to −6)

Given COc1ncc(C(=O)Nc2nc(-c3cnccc3C)cs2)cn1 [compound 349] , state its recorded COL1 Efficacy (LogEC50).
− (−: inactive)

I would be grateful if you could share the reported COL1 Efficacy (LogEC50) for CN(C(=O)c1ccc(N2CCOCC2)cc1)c1nc(-c2ccccc2Cl)cs1 [Compound 399] .
++ (++: −5 to −6)

Which measured COL1 Efficacy (LogEC50) value corresponds to CN1CC2(C1)CN(c1ccc(C(=O)Nc3nc(-c4ccccc4Cl)cs3)nc1)C2 [compound 459] ?
− (−: inactive)
